molecular target: Melanin-concentrating hormone receptor 1 (Homo sapiens); assay: Concentration required to inhibit 50% of melanin-concentrating hormone induced [Ca2+] flux in IMR-32 cells measured by using a fluorometric imaging plate reader; format: functional, cell-based
Sequence (Q99705 whole entry): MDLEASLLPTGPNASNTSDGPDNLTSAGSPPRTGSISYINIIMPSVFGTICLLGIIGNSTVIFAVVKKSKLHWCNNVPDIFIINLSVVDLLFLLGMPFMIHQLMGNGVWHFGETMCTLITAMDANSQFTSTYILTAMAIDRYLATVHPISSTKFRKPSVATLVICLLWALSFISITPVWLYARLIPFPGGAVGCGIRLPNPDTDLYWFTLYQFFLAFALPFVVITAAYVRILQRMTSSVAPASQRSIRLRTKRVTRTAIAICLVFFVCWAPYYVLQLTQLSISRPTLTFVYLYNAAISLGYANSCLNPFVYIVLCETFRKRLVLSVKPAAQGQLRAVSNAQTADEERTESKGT
ENDPOINT LABEL: IC50 (µM)

# annotated cases, reported IC50 shown
Q: Indicate the recorded IC50 value for this compound: CC(CC(C)(C)C)Oc1cccc2ccc(N)nc12 (stereo in doubt; 19)
Result: 0.211

Q: Indicate the recorded IC50 value for this compound: Nc1ccc2cccc(OCC3CCOC3)c2n1 (stereo not given)
Result: 6.24

Q: Indicate the recorded IC50 value for this compound: CC(CC(C)(C)C)Oc1cccc2ccc(N)nc12 (single isomer, unassigned)
Result: 0.09

Q: Indicate the recorded IC50 value for this compound: CNc1ccc2cccc(OC(C)CC(C)(C)C)c2n1 (stereo not given)
Result: 6.09

Q: Indicate the recorded IC50 value for this compound: Nc1ccc2cccc(OC3CCCCCC3)c2n1
Result: 3.48

(I) Nc1ccc2cccc(OCC3CCCCC3)c2n1
(II) CCC(C)Oc1cccc2ccc(N)nc12 (stereo not given)
(III) CCCC(C)Oc1cccc2ccc(N)nc12 (stereo not given)
(IV) CC(CC(C)(C)C)Oc1cccc2ccc(NCc3ccc(-c4ccccc4Cl)o3)nc12 (stereo not given)
Q: Rank the items in ascending order with respect to IC50. Hello, could you send the labels back in the order asked? Thank you.
Result: IV, III, I, II

(a) Nc1ccc2cccc(OCC3CCCC3)c2n1
(b) CCC(CC)C(C)Oc1cccc2ccc(N)nc12 (stereo not given)
Q: Which entry has a larger number for IC50, a or b ? # respond with the chosen item's label
Result: a

(a) Nc1ccc2cccc(OCC3CC4CCC3C4)c2n1 (stereo not given)
(b) CC(CC(C)(C)C)Oc1cccc2ccc(N)nc12 (single isomer, unassigned; (+))
Q: Which entry has a larger number for IC50, a or b ? # respond with the chosen item's label
Result: b
(b: 4.51 µM, a: 1.73 µM)

(P) CC1CCCCC1Oc1cccc2ccc(N)nc12 (stereo not given)
(Q) COC(C)(C)CCOc1cccc2ccc(N)nc12
Q: Which entry has a larger number for IC50, P or Q ? # respond with the chosen item's label
Result: Q
